Where do the numbers come from? From PubChem BioAssay AID651558.

assay: qHTS Assay to Find Inhibitors of Chronic Active B-Cell Receptor Signaling: Hit Validation in Primary Screen; conditions: ABC-DLBCL IkB-luc/CBR ratio luminescence, 4 h; series mostly up to 46.1 µM; further: nearly all actives have a fitted effect of over 75% in size
Hit rate of the full screen: of about 1,200 compounds, about 480 (40%) were called active. Another 29% or so got no clear call; they are omitted. The call rests on the fitted dose curve; in most records, active means well fitted inhibition curve with a large enough effect; inconclusive means small, poorly fitted or top-dose-only effect; inactive means no such curve, though single readings can be large or run the other way. This is one part of the list.
Outcome field: choose from active, inactive

compound=CNC(=O)[C@H]1O[C@@H](n2cnc3c(NCc4cccc(I)c4)ncnc32)[C@H](O)[C@@H]1O assigned_class=active
compound=CCOc1ccc(NC(=O)c2cc(OC)nc3ccccc23)cc1 assigned_class=active
compound=CCc1nnc(NC(=S)Nc2ccccc2)s1 assigned_class=active
compound=COc1cc(-c2noc(C)c2-c2ccc(N(C)C)nc2)cc(OC)c1OC assigned_class=active

Incoming: Given `COCCCNC(=O)C(=O)Nc1ccc2c(c1)N(S(=O)(=O)c1cccs1)CCC2` , state the outcome it received in this test.
Outgoing: active

Incoming: Test call, this compound: `CC(C)NC(=S)N=Nc1c(O)[nH]c2ccc([N+](=O)[O-])cc12`
Outgoing: inactive

Incoming: Can you look up the reported call for `CCOc1ccc(S(=O)(=O)NCc2ccccn2)cc1NC(=O)c1ccccc1F` for me?
Outgoing: active
